Assay read-out IC50 on Wee1-like protein kinase (Homo sapiens); records merged from the literature.

mol: CNCc1cc(Nc2ncc3c(n2)N(C)CN(c2c(Cl)cccc2Cl)C3=O)ccc1Br
target.entity: Wee1-like protein kinase (Homo sapiens)
experimental.endpoint: IC50
recorded.measurement: 10 to 100 nM

mol: COC[C@H]1CN(c2ccc(Nc3ncc4c(n3)N(C)CN(c3c(Cl)cccc3Cl)C4=O)cc2CO)CCN1
target.entity: Wee1-like protein kinase (Homo sapiens)
experimental.endpoint: IC50
recorded.measurement: ≤ 10 nM

mol: CN1CCN(c2ccc(Nc3ncc4cnn(-c5ccnc(C(C)(C)O)c5)c4n3)cc2)CC1
target.entity: Wee1-like protein kinase (Homo sapiens)
experimental.endpoint: IC50
recorded.measurement: 100 to 1000 nM

mol: CN1CCN(c2ccc(Nc3ncc4cnn(-c5cc(C(C)(C)O)ccn5)c4n3)cc2)CC1
target.entity: Wee1-like protein kinase (Homo sapiens)
experimental.endpoint: IC50
recorded.measurement: 100 to 1000 nM

mol: O=C1c2cnc(Nc3ccc(N4CCCC4)cc3)nc2OCN1c1c(Cl)cccc1Cl
target.entity: Wee1-like protein kinase (Homo sapiens)
experimental.endpoint: IC50
recorded.measurement: > 5000 nM

mol: CN1CCN(c2ccc(Nc3ncc4cnn(-c5cccc(N=S(C)(C)=O)c5F)c4n3)cc2)CC1
target.entity: Wee1-like protein kinase (Homo sapiens)
experimental.endpoint: IC50
recorded.measurement: 100 to 1000 nM

mol: CN1CCc2ccc(Nc3ncc4c(n3)N(C)CN(c3c(Cl)cccc3Cl)C4=O)cc2C1
target.entity: Wee1-like protein kinase (Homo sapiens)
experimental.endpoint: IC50
recorded.measurement: ≤ 10 nM

mol: CC(C)N1CCN(c2ccc(Nc3ncc4c(n3)N(C)CN(c3c(F)cccc3Cl)C4=O)cc2CO)CC1
target.entity: Wee1-like protein kinase (Homo sapiens)
experimental.endpoint: IC50
recorded.measurement: ≤ 10 nM

Ask: Fetch value of IC50 on Wee1-like protein kinase (Homo sapiens) for `CN1CN(c2c(Cl)cccc2Cl)C(=O)c2cnc(Nc3ccc(N4CCCCC4)c(CO)c3)nc21` .
Result: ≥ 100 nM

Ask: Answer briefly: IC50 recorded on Wee1-like protein kinase (Homo sapiens) for `CN1CN(c2c(Cl)cccc2Cl)C(=O)c2cnc(Nc3ccc(C4CCN(C5CCC5)CC4)c(CO)c3)nc21`
Result: ≤ 10 nM
